Field: ligation selection enrichment. Provide a value for each of the variants that follow.
B1: library; a variant is named by its letters at N, in order (parent)
chain: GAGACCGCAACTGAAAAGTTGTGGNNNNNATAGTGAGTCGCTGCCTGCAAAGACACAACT

- Variants of: B1
- assay.remarks: ligation selection enrichment (abundance after / before one-round selection) (fold); higher = more template-directed ligation activity
- conditions: with T7Psub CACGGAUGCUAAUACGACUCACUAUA; MgCl2 25 mM; 42 °C; 4 h; pH 8.5
Keep the answer to the number alone.

Which ligation selection enrichment is reported for this variant? ACGTT 0.149

Let us now turn to CAAAT 0.595

Let us now turn to TAATG 1.16

Let us now turn to TAATT 0.211

Let us now turn to TATTC 0.186

Let us now turn to CAACC 0.126

Let us now turn to CGTGC 0.196

Let us now turn to CGACC 0.239

Let us now turn to GCCGC 0.205

Let us now turn to GTTTT 0.277

Let us now turn to GGAAA 0.282

Let us now turn to TGATG 0.708

Let us now turn to GCTAA 0.176

Let us now turn to ATTCA 0.611

Let us now turn to TTGCC 0.231

Let us now turn to GAGGA 0.501

Let us now turn to ATGTC 0.172

Let us now turn to TAGAT 15.6

Let us now turn to ATAGG 0.3

Let us now turn to ACATC 0.138

Let us now turn to TGATT 2.4

Let us now turn to TCGTA 0.31
